Measured PBM binding z-score values are reported for all entries that follow.
- Tested on: RARb:RXRa (NR concentration 270 nM, RXRa partner concentration 90 nM)
- MEASUREMENT DESCRIPTION: PBM binding z-score (relative to random genomic background probes); higher = stronger binding; sequences stand for … in GC…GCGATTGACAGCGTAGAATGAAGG
Answer with the value's number alone.

RESIDUE SEQUENCE | PBM binding z-score
ATCTCTAGGTAAAGATAGTACAGTGAATGCAAAT | 0.0238
CCTATTAGTTGACCATAAGGGCAACTGAAGCTCG | 1.73
CGTTCAAGGTCAGAGAGGTCAGTGAATGCCGAGT | 5.45
TCATATAGGTAAAAGGTGAAAGTAGGTGTGGTAA | 2.06
TCTTGTAGATCAATAGAGGTTAAGAAAGTGCGCT | 0.91
TCATATAGGTCAACAGGTGAAAGTCCGTAAGTTA | 4.83
ACCGAAAGGTCGAAGGTGAGTATACCCACCCGAA | 3.84
ATCTCTAGGTAAAAGTTCCGTGAATCCCGAGGAT | 0.237
CAAACTAGGTCAAAGTCAAAGTCGGTTTGTGCCA | 4.01
GATACAGGGTAAAGGCCAGAGTACGCGTATTGAT | 1.18

Output measured PBM binding z-score for this item: AACTCTAGGTAAGACTCAGTTCAGTGAAGAACGC
0.272

Output measured PBM binding z-score for this item: ATGTGTAGGTTATCGGGTCATTCAGTTTGCGCAT
2.75

###

- System: LXRa homodimer (NR concentration 270 nM)
- MEASUREMENT DESCRIPTION: PBM binding z-score (relative to random genomic background probes); higher = stronger binding; sequences stand for … in GC…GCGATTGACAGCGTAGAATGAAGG
Measured PBM binding z-score values are reported for all entries that follow.
Answer with the value's number alone.

Recorded results for 5 sequences are shown here.
RESIDUE SEQUENCE | TESTED TARGET | QUANTITY MEASURED | NUMBER
TAGCCTAGGTCATTAGGCCAGTATAGTACGCATC | LXRa homodimer (NR concentration 270 nM) | PBM binding z-score | 0.7
TTACCAAGGTGCAGGTCGTTGATCCCTCTGTAGA | LXRa homodimer (NR concentration 270 nM) | PBM binding z-score | 0.154
ACTATTAGTTGACATAGGGCAACCGATACGACGC | LXRa homodimer (NR concentration 270 nM) | PBM binding z-score | 0.152
GGAACGAGGGCATGTTGATAGCAGAGTTTGATGG | LXRa homodimer (NR concentration 270 nM) | PBM binding z-score | 0.0371
TTACTAAGGTGAAAGGTCGTTGATGCACGCCTTG | LXRa homodimer (NR concentration 270 nM) | PBM binding z-score | 0.805

// below: PBM binding z-score requested for another sequence
Output measured PBM binding z-score for this item: CCGACTGCGGCAGAAAGGTTACCATACCATCCGG
-0.0134

###

- Tested on: VDR:RXRa (NR concentration 270 nM, RXRa partner concentration 90 nM)
- MEASUREMENT DESCRIPTION: PBM binding z-score (relative to random genomic background probes); higher = stronger binding; sequences stand for … in GC…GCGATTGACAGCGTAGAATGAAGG
Measured PBM binding z-score values are reported for all entries that follow.
Answer with the value's number alone.

Recorded results for 5 sequences are shown here.
RESIDUE SEQUENCE | TESTED TARGET | NUMBER
AGTCACAGTTCAGGACGAGGTAACGTAAAGCACG | VDR:RXRa (NR concentration 270 nM, RXRa partner concentration 90 nM) | 1.12
CCTACTCGGCCAAGGTCATTGATCAGTCAAAGCA | VDR:RXRa (NR concentration 270 nM, RXRa partner concentration 90 nM) | 3.51
TGAATGATGTTATAAGATCAGGGAACGTTGCAAA | VDR:RXRa (NR concentration 270 nM, RXRa partner concentration 90 nM) | -0.175
TCTCGGAGGACACGAAGGTCACAGCTTTCCAGAG | VDR:RXRa (NR concentration 270 nM, RXRa partner concentration 90 nM) | 4.05
TGTCAAAGTTCAAAGGTAAGGTAAGTATCCACAC | VDR:RXRa (NR concentration 270 nM, RXRa partner concentration 90 nM) | 4.95

Output measured PBM binding z-score for this item: ATATCTAGGTTATCGGGTCATTCAGTTTGCGCAT
5.12

Output measured PBM binding z-score for this item: AGAATGAGGTTACCAAAGATGAGGGAAACGCTTG
1.03

Output measured PBM binding z-score for this item: CAGCCTAAGTCAGGGCCAGTATAGGAGGAACGTT
-0.626

Output measured PBM binding z-score for this item: AGAATGATGTTACCAAAGATCAGGGAAACGCTTG
-0.205

Output measured PBM binding z-score for this item: TAGCCTAGGTCATGCGGGCCAGTTTAGTGTCGGC
2.97

Output measured PBM binding z-score for this item: GCTCCGAGGACAAGGTCAGAGCTTTGTCCGTAGA
1.43

Output measured PBM binding z-score for this item: CCGACTGGGGCAAAGGTTTCCATACTCAGTACGA
-0.277

Output measured PBM binding z-score for this item: CCTTACGAGTCACGAGGTTATAGCACGACGAGCG
1.7

Output measured PBM binding z-score for this item: ATCTAAAGGTCGAGGTGAGTATAGAGAAAGGGAA
3.08

Output measured PBM binding z-score for this item: ACAGACAGGTGATGAAGGCAACTCAGGCTATCAT
-0.257

Output measured PBM binding z-score for this item: CCTCGGAGGACAACAAGAGGTCAGAGCTGCCAGA
2.88

Output measured PBM binding z-score for this item: AGTCCAAGTTCATCTAGGTAACGTAAGATATGCT
4.48

Output measured PBM binding z-score for this item: TCTTGTAGATCAAAGGTTCAGAAAGCCGAAGCCT
1.47

Output measured PBM binding z-score for this item: CCGACTGGGGCAAGGTTACCATGACGCACAGCCA
-0.0991

Output measured PBM binding z-score for this item: CGAACGAGGGCATGAGTTGATAGAAAATGCCGAT
1.29

Output measured PBM binding z-score for this item: CCTACTAGTTGACCATAAGGGCAACCGAAGCTCG
0.471

Output measured PBM binding z-score for this item: ATCTCTAAGTAAAAGTTCAGTGAATCCCGAGGAT
1.05

Output measured PBM binding z-score for this item: ATCTCTTGGTAAAGATAGTTCAGTGAATGCAAAT
0.811

Output measured PBM binding z-score for this item: ACTAGCAGGCCAAGGGTCACTCACGATTAGTCCG
2.69

Output measured PBM binding z-score for this item: ATATGCAGGTTAGCTGGGGTCATTCAGACTAGGC
6.21

Output measured PBM binding z-score for this item: TTACCAAGGTGAAGGTTGTTGATCCCTCTGTAGA
0.381

###

- Tested on: LXRb:RXRa (NR concentration 270 nM, RXRa partner concentration 90 nM)
- MEASUREMENT DESCRIPTION: PBM binding z-score (relative to random genomic background probes); higher = stronger binding; sequences stand for … in GC…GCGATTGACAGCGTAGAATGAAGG
Measured PBM binding z-score values are reported for all entries that follow.
Answer with the value's number alone.

Recorded results for 2 sequences are shown here.
RESIDUE SEQUENCE | PBM binding z-score
TTAATGAGGTTATAAGATCAGGGAACGTTGCAAA | 1.58
ACAGACAGGTGATGAAGGTAACTCAGGCTATCAT | -0.204

// below: PBM binding z-score requested for another sequence
Output measured PBM binding z-score for this item: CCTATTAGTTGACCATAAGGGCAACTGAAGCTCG
0.496

###

Measured PBM binding z-score values are reported for all entries that follow.
- Tested on: PPARg homodimer (NR concentration 180 nM)
- MEASUREMENT DESCRIPTION: PBM binding z-score (relative to random genomic background probes); higher = stronger binding; sequences stand for … in GC…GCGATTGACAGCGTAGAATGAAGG

RESIDUE SEQUENCE | QUANTITY MEASURED | RESULT
TAGCCTAGCTCAGATCGGGCCAGTATACGCTATA | PBM binding z-score | -1.79
ATCTCTAGGTAAAGTTAAGTGAAAGATCGATAGA | PBM binding z-score | 0.251
AATACAGGGTCACTAGGCCAGAGTAGGTACGAAT | PBM binding z-score | 2.24
AGTCAAAGTTCACTAGGTAACGTAAGATTCAGCT | PBM binding z-score | 2.38
CTCGAAAGGTCGTACTCAGGTGAGTATACCAAAC | PBM binding z-score | 2.32
TCGAGTAGGTTACCAAGGGGGCATTCAGCTTTCT | PBM binding z-score | 1.17
CTCGAAAGGTCGATTGAGGTGAGTATACGGATAA | PBM binding z-score | 0.805
TCATATAGGTAAACAGGTGAACGTCCGTAAGTTA | PBM binding z-score | 1.69
CCTTACGGGTCTCGAGGTTATAGCACGACGAGCG | PBM binding z-score | 0.167
CCTCGGAGGACCGAAGGTCAGAGCTGTCCGCTTT | PBM binding z-score | 0.693

Output measured PBM binding z-score for this item: CTGCCAAGGTGAACAAGGTCGTTGATTACTATTC
0.571

Output measured PBM binding z-score for this item: GTACCAAGGTGAAAAGGTCGTTGATGAGTAGGCG
2.35
